# credit: ChEMBL document CHEMBL3877327

Molecular target: Nuclear factor erythroid 2-related factor 2 (Homo sapiens) (UniProt Q16236)
Sequence (whole entry): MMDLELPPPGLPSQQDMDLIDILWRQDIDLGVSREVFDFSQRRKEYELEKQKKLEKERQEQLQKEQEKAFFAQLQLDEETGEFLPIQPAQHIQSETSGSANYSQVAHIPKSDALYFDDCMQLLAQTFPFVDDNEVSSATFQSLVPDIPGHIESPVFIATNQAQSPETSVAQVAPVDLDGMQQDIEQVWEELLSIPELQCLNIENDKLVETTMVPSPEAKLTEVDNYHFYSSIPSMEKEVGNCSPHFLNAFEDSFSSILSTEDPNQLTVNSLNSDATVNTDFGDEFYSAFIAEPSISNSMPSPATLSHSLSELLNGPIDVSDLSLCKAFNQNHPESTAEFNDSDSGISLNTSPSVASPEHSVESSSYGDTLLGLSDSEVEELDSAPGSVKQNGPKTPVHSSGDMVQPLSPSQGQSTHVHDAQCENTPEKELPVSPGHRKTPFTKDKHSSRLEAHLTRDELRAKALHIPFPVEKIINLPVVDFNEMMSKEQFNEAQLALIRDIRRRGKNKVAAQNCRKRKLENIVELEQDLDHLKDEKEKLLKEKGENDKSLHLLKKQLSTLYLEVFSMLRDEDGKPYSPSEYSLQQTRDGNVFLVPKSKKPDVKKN
Assay: Activation of Nrf2 (unknown origin) expressed in human HepG2 cells after 5 hrs by ARE-driven luciferase reporter gene assay relative to control
Type: cell-based
readout label: fold change (FC)
Response field accepts a number only; no unit should be typed.

Solved cases (10 shown):
Fc1ccccc1/C=C/c1ccc(Cl)cc1 :: 5.3
Fc1ccccc1/C=C/c1ccccc1 :: 10.7
Cc1ccc(/C=C/c2cccc(C(F)(F)F)c2)cc1 :: 19.2
Fc1cccc(/C=C/c2cccc(F)c2)c1 :: 7
Fc1cccc(/C=C/c2ccc(F)cc2F)c1 :: 8.2
Cc1ccc(/C=C/c2cccc(F)c2)cc1 :: 4.7
COc1cccc(/C=C/c2ccc(C(F)(F)F)cc2)c1OC :: 65.5
COc1ccc(/C=C/c2ccc(F)cc2)cc1OC :: 1.6
Cc1ccc(/C=C/c2ccc(F)cc2F)cc1 :: 13.5
Cc1ccc(/C=C/c2ccc(F)cc2)cc1 :: 1.1

Look up and report measured fold change (FC) for this entry: Fc1ccc(/C=C/c2ccccc2F)cc1 12.7

In one line, give reported fold change (FC) of the entry COc1ccc(/C=C/c2ccc(F)cc2)cc1 . 1.7

Supply fold change (FC) value. Item: Fc1cccc(/C=C/c2ccc(F)c(F)c2)c1 12.2

Retrieve fold change (FC) measured for Oc1ccc(/C=C/c2cc(O)cc(O)c2)cc1 and print it. 3.2

Tell us which fold change (FC) value is on record for Fc1ccccc1/C=C/c1c(F)cccc1F 21.2

Supply fold change (FC) value. Item: COc1ccc(OC)c(/C=C/c2ccc(F)cc2)c1 10.7

###

Reported fold change (FC) values are given for each entry in this list.
Target: Nuclear factor erythroid 2-related factor 2 (Homo sapiens) (UniProt Q16236)
Sequence (whole entry): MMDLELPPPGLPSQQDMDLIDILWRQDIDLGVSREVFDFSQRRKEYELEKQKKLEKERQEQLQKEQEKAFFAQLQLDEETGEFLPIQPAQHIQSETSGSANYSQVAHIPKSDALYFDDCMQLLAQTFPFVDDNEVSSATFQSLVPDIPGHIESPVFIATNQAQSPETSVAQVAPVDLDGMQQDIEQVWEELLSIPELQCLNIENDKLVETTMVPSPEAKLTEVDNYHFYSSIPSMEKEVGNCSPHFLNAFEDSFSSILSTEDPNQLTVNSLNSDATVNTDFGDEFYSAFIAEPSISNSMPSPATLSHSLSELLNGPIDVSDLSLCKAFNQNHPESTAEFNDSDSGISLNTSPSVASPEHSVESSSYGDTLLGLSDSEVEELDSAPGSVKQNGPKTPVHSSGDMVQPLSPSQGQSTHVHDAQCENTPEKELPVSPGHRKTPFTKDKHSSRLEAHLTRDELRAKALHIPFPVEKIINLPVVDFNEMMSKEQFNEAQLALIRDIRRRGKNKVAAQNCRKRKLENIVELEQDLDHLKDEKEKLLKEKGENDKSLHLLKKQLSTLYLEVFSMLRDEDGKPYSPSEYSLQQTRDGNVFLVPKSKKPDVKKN
Experiment: Activation of Nrf2 (unknown origin) expressed in human HepG2 cells at 15 uM after 5 hrs by ARE-driven luciferase reporter gene assay relative to control
Format: cell-based
Could you respond with only the numeric value?

COc1ccc(/C=C/c2ccc(F)c(F)c2)cc1 :: 4.6

Query fold change (FC) for Fc1ccc(/C=C/c2ccccc2F)cc1F 11.5

###

target: Nuclear factor erythroid 2-related factor 2 (Homo sapiens) (UniProt Q16236); test: Activation of Nrf2 (unknown origin) expressed in human HepG2 cells after 5 hrs by ARE-driven luciferase reporter gene assay relative to control; assay type: cell-based
readout label: fold change (FC)
Give a plain numeric answer without units written out.

COc1cccc(/C=C/c2ccc(C(C)C)cc2)c1OC :: 33.9
COc1cccc(/C=C/c2ccc(F)cc2)c1 :: 4.4
O=[N+]([O-])c1cccc(/C=C/c2ccccc2)c1 :: 18.6

Look up fold change (FC) of COc1ccc(/C=C/c2ccc(OC)cc2OC)cc1 and report it. 15.6

Name the recorded fold change (FC) of the compound listed here: Oc1ccc(/C=C/c2ccccc2F)cc1 13.4

Please supply the value of reported fold change (FC) for the item COc1ccc(/C=C/c2ccccc2Cl)cc1 17.8

Provide only the value of recorded fold change (FC) for Cc1ccc(/C=C/c2ccc(F)c(F)c2)cc1 10.2

Read the entry COc1cccc(/C=C/c2ccccc2)c1OC and write its reported fold change (FC). 25.4

Quick one: give measured fold change (FC) for COc1cccc(/C=C/c2ccccc2F)c1 14.4

Please indicate fold change (FC) recorded for Fc1cccc(/C=C/c2cc(F)ccc2F)c1 10.7

###

Readings of fold change (FC) for the listed compounds
molecular target: Nuclear factor erythroid 2-related factor 2 (Homo sapiens) (UniProt Q16236); experiment: Activation of Nrf2 (unknown origin) expressed in human HepG2 cells at 15 uM after 5 hrs by ARE-driven luciferase reporter gene assay relative to control; format: cell-based
Just the number, please, no unit after it.

These recorded examples may help you get a feel for the data.
Fc1ccc(/C=C/c2ccc(F)c(F)c2)cc1 :: 7
COc1cccc(/C=C/c2cc(OC)ccc2OC)c1 :: 15.7
Fc1cccc(/C=C/c2ccccc2F)c1 :: 8.5

Here's the next entry for you.
For Nuclear factor erythroid 2-related factor 2 (Homo sapiens) (UniProt Q16236), give fold change (FC) of the listed compound: COc1ccc(/C=C/c2cccc(O)c2)cc1 28.1

###

biological target: Nuclear factor erythroid 2-related factor 2 (Homo sapiens) (UniProt Q16236); test: Activation of Nrf2 (unknown origin) expressed in human HepG2 cells after 5 hrs by ARE-driven luciferase reporter gene assay relative to control; format: cell-based
Decision: fold change (FC) compared against 10; not below it gives label 1, below it gives label 0.

As a guide, the following entries are already answered.
COc1cccc(/C=C/c2cccc(F)c2)c1 :: label 1
Fc1ccc(/C=C/c2cc(F)ccc2F)cc1 :: label 1

Quick check, fold change (FC) >= 10? COc1ccc(/C=C/c2cccc(F)c2)cc1 label 0

Does the reported fold change (FC) for COc1cccc(/C=C/c2cccc(F)c2)c1OC fall at or above the 10 mark? label 1

Confirm if fold change (FC) reported for the molecule COc1ccc(OC)c(/C=C/c2ccc(OC)cc2OC)c1 is 10 or above. label 1

Assess whether reported fold change (FC) for COc1ccc(/C=C/c2ccc(O)c(OC)c2)cc1 sits at 10 or higher. label 1

Decide: is the reported value of fold change (FC) for Fc1ccc(/C=C/c2ccc(F)cc2F)cc1 equal to or greater than 10? label 1

Hi, just wondering whether Fc1ccc(/C=C/c2ccccc2F)c(F)c1 shows fold change (FC) of 10 or higher. label 0

Exam item: decide whether the reported fold change (FC) for Cc1ccc(/C=C/c2cccc([N+](=O)[O-])c2)cc1 is at least 10. label 1

API: above_or_equal(metric=fold change (FC), cutoff=10) for item COc1ccc(/C=C/c2cccc(F)c2)cc1OC label 0

// inclusive: fold change (FC) at least 10? input: Fc1ccc(/C=C/c2ccccc2)cc1 label 0

Kindly determine if fold change (FC) recorded for COc1cccc(/C=C/c2ccc(C)cc2)c1OC is above or exactly 10. label 1

State whether the measured fold change (FC) reaches 10, counting equality as reaching it, for Fc1cccc(F)c1/C=C/c1ccccc1 label 1

Quick check: does Fc1cccc(/C=C/c2ccccc2)c1 have fold change (FC) greater than or equal to 10? label 0

Dear colleague, could you confirm whether Fc1ccccc1/C=C/c1ccccc1F has fold change (FC) at or above 10? label 1

###

target: Nuclear factor erythroid 2-related factor 2 (Homo sapiens); assay: Activation of Nrf2 (unknown origin) expressed in human HepG2 cells after 5 hrs by ARE-driven luciferase reporter gene assay relative to control; assay type: cell-based
# Lookup of reported fold change (FC) keyed by entry
# respond with the number and nothing more

Would you please look over these solved cases?
Cc1ccc(/C=C/c2ccccc2F)cc1 :: 10.1
COc1ccccc1/C=C/c1ccccc1 :: 23.1
COc1cccc(/C=C/c2ccc(F)cc2)c1OC :: 16.9
C[S+]([O-])CCCCN=C=S (stereo unspecified) :: 12.4
Fc1ccc(/C=C/c2cccc(F)c2)cc1 :: 4.5
COc1ccc(/C=C/c2ccccc2F)cc1 :: 14.9

Name the recorded fold change (FC) of the item COc1ccc(/C=C/c2cccc([N+](=O)[O-])c2)cc1 in your answer. 69

Recall and state the measured fold change (FC) for COc1ccccc1/C=C/c1ccccc1F . 18.4

Provide only the value of recorded fold change (FC) for COc1ccc(/C=C/c2cc(F)ccc2F)cc1 17

For the molecule Fc1ccc(F)c(/C=C/c2ccccc2F)c1 , give its measured fold change (FC) value. 22.3

Return fold change (FC) (reported value) for this molecule: COc1cccc(/C=C/c2ccccc2OC)c1 29.2
